assay: Effect of food study: plasma pharmacokinetics fasted vs high-fat breakfast; format: in vivo, humans; conditions: male, human, plasma, oral, 100 mg, 100 mg eplerenone capsule; Fasted Conditions; 0.5 hours after dosing
Readout label: concentration at 0.5 h (ng/mL)
Hi! Could you send only the number? It should be in ng/mL, unit omitted.

Enquiry: What does the data say about its concentration at 0.5 h? Entry: COC(=O)C1CC2=CC(=O)CCC2(C)C23OC2CC2(C)C(CC[C@@]24CCC(=O)O4)C13 (stereo partly shown) [eplerenone]
Return: 1010

---

test: Single dose study: plasma pharmacokinetics of eplerenone, open lactone ring form, spironolactone; settings: male, human, plasma, po, 300 mg
Readout label: Cmax (ng/mL)
Hi! Could you send only the number? It should be in ng/mL, unit omitted.

Enquiry: What does the data say about its Cmax? Entry: COC(=O)C1CC2=CC(=O)CCC2(C)C23OC2CC2(C)C(CC[C@@]24CCC(=O)O4)C13 (stereo partly shown) [eplerenone]
Return: 2970
